# target.under.test: T1, MPDZ_10, O75970
# T1 sequence (O75970 1624-1722, limits assumed, looked up): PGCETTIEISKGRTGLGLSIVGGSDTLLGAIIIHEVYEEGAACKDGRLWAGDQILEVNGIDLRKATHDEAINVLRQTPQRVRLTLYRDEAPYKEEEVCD
# assay.explanation: holdup assay
# Design: key: below the threshold = too weak to quantify, mostly under pKd 3.1 to 4
# assay.conditions: plain residues with an end cap or a label only (N-terminal biotin on a linker: ahx)

# binder, pKd
records = [
    ("HTHSYIETHV [CNKSR2, Q8WXI2]", "below the threshold"),
    ("EKQAKGDTEF [CACYBP, Q9HB71]", "below the threshold"),
    ("QPRTWLQSPV [RTKN, Q9BST9]", 3.97),
    ("TQKFRASTAL [FRMPD1, Q5SYB0]", "below the threshold"),
    ("QNTDDVQTSF [ACE2, Q9BYF1]", "below the threshold"),
    ("QDEKVKESYV [ABCA1, O95477]", 4.29),
    ("TEAKLTETNA [MYO18A, Q92614]", "below the threshold"),
    ("TESNLQTSSC [CGN, Q9P2M7]", 3.9),
    ("APSRKLNTEI [TIAM1, Q13009]", 3.75),
]
